test: yeast display, Sf9 membrane polyspecificity reagent, FACS + sequencing; frameworks hold sequencing errors
experimental.endpoint: polyreactivity (PSR sort gate)

// known answers, use as guide
polymer.sequence: QVQLVESGGGLVQAGGSLRLSCAASGRTFYFNGMGWSRQAPGKETELVAVITKSGGDTYYADSVKGRFTISRDNAKNTVYLQMNSLKPEDTAVYYCAAVYGYYTYWIPGFTWAVDYWGQGTQVTVSS
polyreactivity (PSR sort gate): low polyreactivity
--
polymer.sequence: QVQLVESGGGLVQAGGSLRLSCAASGRIFDINAMGWYRQAPGKEWELVAAISRGGSTYYADSVKGRFTISLDNAKNTVYLNMNSLKPEDTAVYYCNIYRYRGSTVFDGYDYWGHGTQVTVSS
polyreactivity (PSR sort gate): high polyreactivity
--
polymer.sequence: QVQLVESGGGLVQAGGSLRLSCAASGSIFVYYAMGWYRQAPGKERELVAAISQRGGRTYYADSVKGRFTISRDNAKNTVYLQMNSLKPEDTAVYYCAARAWTRSVPYGFYYWGQGTQVTVSS
polyreactivity (PSR sort gate): high polyreactivity
--
polymer.sequence: QVQLVESGGGLVQAGGSLRLSCAASGFIYGKNAMGWYRQAPGKERELVAAISQRGGSTYYADSVKGRFTISRDTAKNTVYLQMNSLKPEDTAVYYCAADGRRVVARYDYWGQVTQVTVSS
polyreactivity (PSR sort gate): high polyreactivity
--
polymer.sequence: QVQLVESAVGLVQAGGSRRLSCAASGRTFDSNAMGWYRQAPGKEREFVAAISWSGGSTYYADSVKGRFTISRDNAKNTVYLQMNSLKREETAVYYCNRLGRHAPATRYGYWGLGTQVTVSS
polyreactivity (PSR sort gate): high polyreactivity
--
polymer.sequence: QVQLVESGGGLVQAGGSLRLSCAASGSIFAGYAMGWYRQAPGKERELVAAISRRGGRTYYADSVKGRFTISRDNAKNTVYLQMNSLKPEDTAVYYCARRVDYISSKYGYWGQGTQVTVSS
polyreactivity (PSR sort gate): high polyreactivity
--
polymer.sequence: QVQLVESGGRLVQAGGSLRLSCAASGYTIDPYDMGWYRQAPGKERELVASISWSGGDTYYADSVKGRFTISRDNAKNTVYLQMNSLKPEDTAVYYCAADPGYPANRTEWSDFDYWGQGTQVTVSS
polyreactivity (PSR sort gate): low polyreactivity
--
polymer.sequence: QVQLVESGGGLVQAGGSLRLSCAASGRTFGRNTMGWYRQAPGKERELVAAIDWSGGSTYYADSVKGRFTISRDNAKNTVYLQMNSLKPEDTAVYYCAAASRYPVNYYYWGQGTQVTVSS
polyreactivity (PSR sort gate): high polyreactivity

Ask | Quick one: polyreactivity (PSR sort gate) of QVQLVESGGGLVQAGGSLRLSCAASGFTFQSYAMGWYRQAPGKERELVATIRTRGGSTSYADSVKGRFTISRDNAKNTVYLQMNSLKPEDTAVYYCNGRLSYRSAWYYGGDRYDYWGQGTQVTVSS ?
Reply | high polyreactivity

Ask | # polyreactivity (PSR sort gate) lookup, item QVQLVESGGGFVQAGGSLRLSCAASGRIFRYYAMGWSRQAPGKERELVAAINSGGSTKYADSVKGRFTISRDNAKNTVYFQMNSLNPEDTAVYYCNKDHAFSRYWYGGFDYWGQGTQVTVSS
Reply | high polyreactivity

Ask | Item QVQLVESGGGLVQAGGSLRLSCAASGLTFFAYPMGWYRQAPGKERELVAVITSSGGSTNYADSVKGRFTISRDTPKNTVYLQMNSLKPEDTAVYYCAAYIRYTLPTSRGFGYWGQGTQVTVSS has what recorded polyreactivity (PSR sort gate)?
Reply | high polyreactivity
